Test system: NCI-H23 lung
protocol-description: NCI tumour cell line growth inhibition, 48 h
Where a SMILES comes first, the peptide text is derived from it. [ ]: non-standard residue; d: D form. 2Nal = N[CH](Cc1ccc2ccccc2c1)C(=O)O

{"columns": ["compound", "target-of-assay", "GI50"],
 "data": [
  ["CCOC(=O)c1csc(NC(=O)COc2cccc(/C=C3\\CSc4ccccc4C3=O)c2)n1", "NCI-H23 lung", "105 nM"],
  ["O=C(Cn1c(C(=O)c2ccccc2)nc2ccccc21)c1ccc(F)cc1", "NCI-H23 lung", "19400 nM"],
  ["COc1cc(/C=C\\c2cc(/C=C\\c3ccc(O)c(OC)c3)n(C(=O)CNc3ccc(Cl)cc3)n2)ccc1O", "NCI-H23 lung", "3350 nM"],
  ["CCCCCCN(C)Cc1ccc(OCCOc2ccc(CN(C)CCCCCC)cc2)cc1", "NCI-H23 lung", "1520 nM"],
  ["COc1ccc(/C=C2\\CC(C)CC3C2=NN(c2ccccc2)C3c2ccc(OC)c(OC)c2)cc1OC (stereo not given)", "NCI-H23 lung", "4490 nM"],
  ["CCC[CH2][Sn]([CH2]CCC)([O]C(=O)c1cc(F)cc(F)c1)[O][Sn]([CH2]CCC)([CH2]CCC)[O]C(=O)c1cc(F)cc(F)c1", "NCI-H23 lung", "606 nM"],
  ["O=C(Nc1cccc(Cl)c1)c1cc(N=Nc2ccc([N+](=O)[O-])cc2Cl)ccc1O", "NCI-H23 lung", "1930 nM"],
  ["COc1cc(-c2ccc(NC(=O)NC3CC3)c(OC)c2)ccc1NC(=O)NC1CC1", "NCI-H23 lung", "> 68500 nM"],
  ["Cc1cc(NNC(=O)c2ccccc2O)nc(Nc2nc3ccccc3o2)n1", "NCI-H23 lung", "3990 nM"],
  ["CC(C)C(NC(=O)C(CCCCN)NC(=O)C(Cc1c[nH]c2ccccc12)NC(=O)C(Cc1ccc(O)cc1)NC(=O)C(CS)NC(=O)C(N)Cc1ccc2ccccc2c1)C(=O)NC(CS)C(=O)NC(C(N)=O)C(C)O (stereo not given) (H-[2Nal]CYWKVCT-NH2; configuration not given here)", "NCI-H23 lung", "> 100000 nM"],
  ["O=C(Nc1cccnc1)c1ccc2ccc3ccc(C(=O)Nc4cccnc4)nc3c2n1", "NCI-H23 lung", "202 nM"],
  ["COc1cc2ncn(-c3cc(OCc4ccccc4C(F)(F)F)c(C(C)=O)s3)c2cc1OC", "NCI-H23 lung", "> 25000 nM"],
  ["NC(=Nc1nc(-c2ccccn2)cc2ccccc12)c1ccccn1", "NCI-H23 lung", "74.3 nM"],
  ["CCc1nc2cc(/C=C/C(=O)NO)ccc2c(=O)n1CCc1ccc(F)cc1", "NCI-H23 lung", "1620 nM"],
  ["CC[C@@H](C)Nc1cc(C(=O)NC2CC3CCC(C2)N3c2ccc(C(=O)C3CC3)cn2)c(C)cc1C(N)=O (stereo not given in full)", "NCI-H23 lung", "58.9 nM"]
]}

* * *

System: TK-10 renal
protocol-description: NCI tumour cell line growth inhibition, 48 h
test-readout: GI50

{"columns": ["compound", "target-of-assay", "result"],
 "data": [
  ["COc1cc2ncn(-c3cc(OCc4ccccc4C(F)(F)F)c(C(C)=O)s3)c2cc1OC", "TK-10 renal", "> 25 µM"],
  ["CCOC(=O)c1cc(-c2ccc(OC)c(OC)c2)[nH]c1N/N=C/c1c(Cl)cccc1Cl", "TK-10 renal", "2.5 µM"],
  ["C/C=C(/C)C(=O)OC1C=C(CO)C(=O)C(OC(=O)C(C)(O)C(C)Cl)C1C(C)C (centres undefined)", "TK-10 renal", "1.55 µM"],
  ["N#Cc1c(N)nc(N2CCSCC2)c(C#N)c1-c1ccc(O)cc1", "TK-10 renal", "30.4 µM"],
  ["CCCCCCN(C)Cc1ccc(OCCOc2ccc(CN(C)CCCCCC)cc2)cc1", "TK-10 renal", "1.29 µM"],
  ["CN1CCN(Cc2ccc(NC(=O)c3cncc(C#Cc4cnn5ccccc45)c3)cc2C(F)(F)F)CC1", "TK-10 renal", "1.61 µM"],
  ["CCOC(=O)c1csc(NC(=O)COc2cccc(/C=C3\\CSc4ccccc4C3=O)c2)n1", "TK-10 renal", "2.11 µM"],
  ["CC(C)CCC(=O)[C@@H](C)[C@H]1[C@@H](OC2OCC(O)C(O)C2NS(C)(=O)=O)C[C@H]2[C@@H]3CC=C4C[C@@H](O)CC[C@]4(C)[C@H]3CC[C@]12C (some centres undefined)", "TK-10 renal", "6.63 µM"],
  ["CCc1nc2cc(/C=C/C(=O)NO)ccc2c(=O)n1CCc1ccc(F)cc1", "TK-10 renal", "1.42 µM"]
]}

All figures here come from PubChem BioAssay (NCI).
